# MEASURED ON: Glucose transporter (Leishmania mexicana)
# MEASUREMENT PROTOCOL: ST_JUDE_LEISH: Cytotoxicity at 2uM final concentration against transgenic Leishmania Mexicana promastigotes LmGT2 that are glucose transport deficient and complemented with the L. Mexicana glucose transporter 2. Activity is measured by DNA content using SYBR green in vitro
# Type: functional
MEASURE: inhibition
Note: state the figure and append the unit.

{"columns": ["COMPOUND", "MEASURED ON", "inhibition"],
 "data": [
  ["CS(=O)(=O)c1ccc(CCNCc2ccc(-c3ccc(CN(C(=O)C4CCCC4)C4CCN(Cc5ccccc5)CC4)cc3)nc2)cc1", "Glucose transporter (Leishmania mexicana)", "-2.64%"]
]}

Enquiry: Fill in: inhibition of COc1ccc(CN2CCCC(N3CC4(OC3=O)c3ccccc3-c3ccccc34)C2)c(O)c1 (stereo not given) is ___
Return: 4.18%

Enquiry: Fill in: inhibition of Cc1cc(-c2nc3cncc(-c4cccc(CN5CCCC5Cc5cccnc5)c4)c3n2C)nn1C (stereo not given) is ___
Return: -0.34%

Enquiry: Fill in: inhibition of CC1CN(c2ccc(C(=O)NCC3CC3)cc2NC(=O)OCc2ccccc2)CC(C)O1 (stereo not given) is ___
Return: -0.78%

Enquiry: Fill in: inhibition of Cc1ccccc1C1CCN(C2CCC(NC(=O)/C=C/c3cccc(C(F)(F)F)c3)CC2)CC1 (stereo not given) is ___
Return: 2.39%

###

Quick reference: inhibition of the listed items.
# MEASURED ON: Hexose transporter 1 (Plasmodium falciparum)
# MEASUREMENT PROTOCOL: ST_JUDE_LEISH: Cytotoxicity at 2uM final concentration against transgenic Leishmania Mexicana promastigotes LmPfHT that are glucose transport deficient and complemented with the Plasmodium falciparum hexose transporter. Activity is measured by DNA content using SYBR green in vitro
# Format: functional
Unit % implied. Number only.

Example results:
{"columns": ["MOLECULE", "UNIT ABBREV", "inhibition"],
 "data": [
  ["CN(C)CCNc1cc(-c2ccc3ccccc3c2)nc2ccccc12", "%", 2.94],
  ["CCOc1c(CNCCCNc2cc(O)c3ccccc3n2)cc(I)cc1OC", "%", -1.22],
  ["Cc1cc(N2CCN(CC3CCCCC3)CC2)nc(Nc2ccc(Br)cc2)n1", "%", 3.17],
  ["Cc1[nH]c(C)c(-c2ccc(-c3cc(C(F)(F)F)cc(C(F)(F)F)c3)nc2)c(=O)c1Br", "%", 5.44],
  ["Cc1ccccc1C1CCN(C2CCC(NC(=O)c3ccc(-c4cccc(C(F)(F)F)c4)o3)CC2)CC1 (centres undefined)", "%", 2.19]
]}

Enquiry: Fill in: inhibition of `Cc1cccc2nc(-c3ccc(-c4ccc(NC(=O)Nc5ccsc5)cc4)s3)[nH]c12` is ___
Return: 5.23

Enquiry: Fill in: inhibition of COc1ccc2nccc(NC(=O)OC3CCC(NCc4ccc5c(n4)NC(=O)CS5)CC3)c2c1 (centres undefined) is ___
Return: 4.67

Enquiry: Fill in: inhibition of `Fc1cc(Cl)ccc1Nc1ccnc2cc(-c3ccc(CN4CCNCC4)o3)ccc12` is ___
Return: 1.16

Enquiry: Fill in: inhibition of `O=C(/C=C/c1ccc(Cl)c(Cl)c1)N1CCN(C(=O)Nc2ccc(F)c(Cl)c2)CC1` is ___
Return: 8.92

Enquiry: Fill in: inhibition of CC(CNc1nc(NCC(c2ccccc2)c2ccccc2)c2nc[nH]c2n1)c1ccccc1 (centres undefined) is ___
Return: 5

Enquiry: Fill in: inhibition of `O=C(Nc1ccc(-c2cccc(CN3CCC(O)CC3)c2)cc1)c1cccc(Cl)c1` is ___
Return: 17.8

Enquiry: Fill in: inhibition of CS(=O)(=O)N1CC2(CCN(CCC(NC(=O)/C=C/c3ccccc3)c3ccc(Cl)c(Cl)c3)CC2)c2ccccc21 (centres undefined) is ___
Return: 0.3

Enquiry: Fill in: inhibition of `c1cncc(CCNCc2ccc(-c3ccc(CNC4Cc5ccccc5C4)cc3)cc2)c1` is ___
Return: 3.57

Enquiry: Fill in: inhibition of `O=C(NCCN1CCOCC1)c1ccc(-c2ccc(CNCCCc3ccccc3)cc2)nc1` is ___
Return: -3

Enquiry: Fill in: inhibition of `CCOc1ccc2c(=NN=Cc3cccc(OC)c3OC)cc(C)[nH]c2c1` is ___
Return: 5.53

Enquiry: Fill in: inhibition of `CC(C)c1cccc(OCC2CCN(c3ncc(C(=O)Nc4ccccc4)cc3Cl)CC2)c1` is ___
Return: 1.07

###

# MEASURED ON: Solute carrier family 2, facilitated glucose transporter member 1 (Homo sapiens) (UniProt P11166)
# Sequence (P11166 whole entry): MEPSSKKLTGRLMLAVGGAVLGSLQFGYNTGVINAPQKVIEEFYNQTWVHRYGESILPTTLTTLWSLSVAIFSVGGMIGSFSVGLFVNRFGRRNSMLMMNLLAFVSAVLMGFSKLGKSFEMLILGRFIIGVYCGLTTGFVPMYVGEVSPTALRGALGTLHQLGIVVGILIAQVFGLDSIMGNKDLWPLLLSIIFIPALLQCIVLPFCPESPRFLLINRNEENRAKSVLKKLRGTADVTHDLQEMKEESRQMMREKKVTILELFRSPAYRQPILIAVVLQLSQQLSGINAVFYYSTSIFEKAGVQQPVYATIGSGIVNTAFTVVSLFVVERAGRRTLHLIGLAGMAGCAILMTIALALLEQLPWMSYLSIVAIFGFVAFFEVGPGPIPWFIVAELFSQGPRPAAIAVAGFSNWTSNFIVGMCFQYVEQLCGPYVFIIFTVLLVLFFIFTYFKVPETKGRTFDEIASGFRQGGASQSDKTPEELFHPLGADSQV
# MEASUREMENT PROTOCOL: ST_JUDE_LEISH: Cytotoxicity at 2uM final concentration against transgenic Leishmania Mexicana promastigotes LmGLUT1 that are glucose transport deficient and complemented with the human glucose transporter GLUT1. Activity is measured by DNA content using SYBR green in vitro
# Format: functional
Please note: rule met applies when inhibition is 1% or greater, and rule not met applies otherwise.

Illustrative cases are given below, each with its answer.
{"columns": ["SMILES REPR", "ASSIGNED CLASS"],
 "data": [
  ["OCC1CCN(Cc2ccc(-c3ccc(-c4nc5cc(C(F)(F)F)ccc5[nH]4)s3)cc2)CC1", "rule met"],
  ["O=C(Nc1ccc(Cl)cc1C(=O)Nc1cccc(F)c1)c1ccc([N+](=O)[O-])cc1", "rule not met"],
  ["Cc1noc(C)c1CN1CCCN(c2ccc3c(c2)CCN(Cc2ccc(-c4ncc[nH]4)cc2)CC3)CC1", "rule met"],
  ["O=C(Nc1ccc(Oc2ccccc2)cc1)N(Cc1ccc(-c2cccc(CN3CCNCC3)c2)cc1)C1CCN(Cc2ccccc2)CC1", "rule met"],
  ["COc1cc(Nc2ccnc3ccc(C(C)(C)C)cc23)cc(OC)c1OC", "rule not met"]
]}

Enquiry: Entry `Cc1cc(N[C@@H](Cc2ccccc2)C(=O)NCc2cccc(F)c2)nc(NCCc2ccc(F)cc2)n1` : is its inhibition no less than 1%?
Return: rule met

Enquiry: Entry `O=C(CCCC(=O)Nc1ccc(C2=NCCN2)cc1)Nc1ccc(C2=NCCN2)cc1` : is its inhibition no less than 1%?
Return: rule not met

Enquiry: Entry `Cc1cccc2nc(-c3ccc(-c4ccc(NC(=O)Nc5ccc(F)c(F)c5F)cc4)cc3)[nH]c12` : is its inhibition no less than 1%?
Return: rule met

Enquiry: Entry `Nc1ccc(-c2csc(Nc3ccncc3)n2)cc1` : is its inhibition no less than 1%?
Return: rule met

Enquiry: Entry `Cc1ccc(NC(=O)NC2CCN(c3ccnc4ccccc34)CC2)cc1` : is its inhibition no less than 1%?
Return: rule met

###

Quick reference: inhibition of the listed items.
# MEASURED ON: Hexose transporter 1 (Plasmodium falciparum)
# MEASUREMENT PROTOCOL: ST_JUDE_LEISH: Cytotoxicity at 2uM final concentration against transgenic Leishmania Mexicana promastigotes LmPfHT that are glucose transport deficient and complemented with the Plasmodium falciparum hexose transporter. Activity is measured by DNA content using SYBR green in vitro
# Format: functional
Unit % implied. Number only.

Example results:
{"columns": ["SMILES REPR", "MEASURED ON", "UNIT ABBREV", "inhibition"],
 "data": [
  ["O=C(Cc1c[nH]cn1)Nc1cccc(-c2ccc(-c3nc4ccccc4[nH]3)cc2)c1", "Hexose transporter 1 (Plasmodium falciparum)", "%", 3.82],
  ["CCN(c1cc(C)nc(Nc2ccc(Cl)cc2)n1)[C@H]1CCN(Cc2ccccc2)C1", "Hexose transporter 1 (Plasmodium falciparum)", "%", 7.78],
  ["O=C(NCCCCN1CCC(c2ccc3c(c2OCCO)CCCC3)CC1)c1ccc(-c2ccc(C(F)(F)F)cc2)cc1", "Hexose transporter 1 (Plasmodium falciparum)", "%", 0.12],
  ["Cc1[nH]c2ccccc2c(=O)c1Br", "Hexose transporter 1 (Plasmodium falciparum)", "%", 5.06],
  ["Cc1c(Cn2nc(Cl)c(N3CCNCC3)cc2=O)cccc1NC(=O)Nc1ccc(-c2ccccc2)cc1", "Hexose transporter 1 (Plasmodium falciparum)", "%", -2.29],
  ["Cc1cc(OCCCN2CCC(NS(=O)(=O)c3ccc(Cl)c(Cl)c3)CC2)c2ccccc2n1", "Hexose transporter 1 (Plasmodium falciparum)", "%", 4.69]
]}

Enquiry: Fill in: inhibition of `O=C(Nc1cccc(-c2cc(-c3c(Cl)cccc3Cl)no2)c1)c1cnc2ccccc2c1` is ___
Return: 9.35

Enquiry: Fill in: inhibition of `Cc1ccc(O)cc1Nc1ccnc2ccc(-c3csc(CNCCN4CCOCC4)n3)cc12` is ___
Return: 2.25

Enquiry: Fill in: inhibition of `CCOc1ccc2c(=NN=Cc3ccccc3F)cc(C)[nH]c2c1` is ___
Return: 1.33

Enquiry: Fill in: inhibition of `Cc1cccc(NC(=O)c2cnc(N3CCN(c4ccncc4)CC3)c(Cl)c2)c1` is ___
Return: 19.8
